- MEASURED TARGET: uPAR·uPA interaction (uPAR binding to uPAATF) (Homo sapiens)
- Sequence (Q03405 23-299): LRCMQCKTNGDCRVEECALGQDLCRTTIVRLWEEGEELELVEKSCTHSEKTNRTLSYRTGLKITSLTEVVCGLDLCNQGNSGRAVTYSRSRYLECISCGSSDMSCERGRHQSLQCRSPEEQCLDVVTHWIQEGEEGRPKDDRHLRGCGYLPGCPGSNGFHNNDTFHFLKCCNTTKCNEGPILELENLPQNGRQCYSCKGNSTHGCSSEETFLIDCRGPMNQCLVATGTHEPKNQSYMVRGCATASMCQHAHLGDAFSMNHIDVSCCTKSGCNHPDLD
- TEST PROTOCOL: Microtiter-based ELISA, uPAR binding to immobilized uPAATF

STRUCTURE | IC50 (µM)
O=C(O)c1cccc(Nc2cc(N3CCCCCC3)c3noc4c3c2C(=O)c2ccccc2-4)c1 | 10

###

- MEASURED TARGET: uPAR·uPA interaction (uPAR binding to uPAATF) (Homo sapiens)
- TEST PROTOCOL: Microtiter-based ELISA, uPAR binding to immobilized uPAATF
- CONDITIONS: read-out: IC50, inhibition of uPAATF binding to uPAR (ELISA)
pIC50: −log10 of the molar value.

MOLECULE | pIC50
CC1CCN(c2cc(Nc3ccc(C(=O)O)cc3)c3c4c(onc24)-c2ccccc2C3=O)CC1 | 4.52
CC1CC(C)CN(c2cc(NCCC(=O)O)c3c4c(onc24)-c2ccccc2C3=O)C1 (centres unmarked) | 4.70
